Task for the reader: assign each of the following compounds its reported zone of inhibition at 50 µg/disc.
Test system: Candida albicans
protocolSummary: Antifungal activity against Candida albicans ATCC 10231 at 50 ug/disk after 24 hrs by disk diffusion method
Format: functional
measurementSetup: ATCC 10231, 24 h, read-out: IZ
Numbers only, in mm.

Look over these answered cases.
# compound, unitsSymbol, zone of inhibition at 50 µg/disc
measured = [
    ("CC(=O)C1=C(C)Nc2cc(Cl)ccc2SC1c1ccc([N+](=O)[O-])cc1 (stereo not given)", "mm", 9),
    ("CC(=O)C1=C(C)Nc2ccccc2SC1c1ccc(Cl)cc1Cl (stereo not given)", "mm", 9),
    ("CC(=O)C1=C(C)Nc2cc(Cl)ccc2SC1c1ccc(Cl)cc1 (stereo not given)", "mm", 10),
    ("CC(=O)C1=C(C)Nc2ccccc2SC1c1ccc(C)cc1 (stereo not given)", "mm", 16),
]

Let's switch to this compound now.
Per the records, this compound ( COc1ccc(C2Sc3ccccc3NC(C)=C2C(C)=O)cc1 (stereo not given) ) has zone of inhibition at 50 µg/disc equal to 8

---

Record form. Attribute: zone of inhibition at 50 µg/disc. Fill in for each entry.
Tested on: Candida albicans
protocolSummary: Antifungal activity against Candida albicans ATCC 10231 at 50 ug/disk after 24 hrs by disk diffusion method
Format: functional
measurementSetup: ATCC 10231, 24 h, read-out: IZ
Numbers only, in mm.

Below, each entry is followed by its recorded zone of inhibition at 50 µg/disc result.
# compound, zone of inhibition at 50 µg/disc, mm
rows = [
    ("CC(=O)C1=C(C)Nc2ccccc2SC1c1ccc(F)cc1 (stereo unspecified)", 18),
    ("CC(=O)C1=C(C)Nc2ccccc2SC1c1ccc([N+](=O)[O-])cc1 (stereo unspecified)", 16),
    ("CC(=O)C1=C(C)Nc2cc(Cl)ccc2SC1c1ccc(Br)cc1 (stereo unspecified)", 10),
    ("CC(=O)C1=C(C)Nc2ccccc2SC1c1ccccc1Cl (stereo unspecified)", 12),
    ("CC(=O)C1=C(C)Nc2ccccc2SC1c1ccccc1[N+](=O)[O-] (stereo unspecified)", 11),
    ("CC(=O)C1=C(C)Nc2cc(Cl)ccc2SC1c1ccccc1 (stereo unspecified)", 7),
]

Need zone of inhibition at 50 µg/disc for each of these compounds.
1. CC(=O)C1=C(C)Nc2cc(Cl)ccc2SC1c1ccc(F)cc1 (stereo unspecified)
2. CC(=O)C1=C(C)Nc2cc(Cl)ccc2SC1c1ccccc1Cl (stereo unspecified)
3. CC(=O)C1=C(C)Nc2ccccc2SC1c1ccc(Cl)cc1 (stereo unspecified)
4. CC(=O)C1=C(C)Nc2ccccc2SC1c1ccc(O)cc1 (stereo unspecified)
5. CCOC(=O)C1C(C)=Nc2ccccc2SC1c1ccc(O)cc1 (stereo unspecified)

1. 8
2. 10
3. 18
4. 15
5. 14
